Listing of entries alongside the reported protein stability index.
test system: Saccharomyces cerevisiae; experiment: protein stability index of tFT-peptide fusion (C-terminal peptide) (PSI (0-1 scale)); higher = more stable (slower turnover); settings: genetic background: cdc53-1; temperature: 37 C
When you answer, write just the number.

Solved entries (count: 5):
FQFTLWRTLLCS ... 0.248
RVSIIYLGVLIS ... 0.297
FPRPLPVPLAVS ... 0.217
CWYRAVSIQYVL ... 0.53
PRHLTPPPAPSA ... 0.721

[ask] Hi! What's the reported protein stability index for FPLFCRIHLLCS on Saccharomyces cerevisiae?
[reply] 0.157

[ask] Hi! What's the reported protein stability index for LPVPVLGFPPLA on Saccharomyces cerevisiae?
[reply] 0.778

[ask] Hi! What's the reported protein stability index for YGETRGGGRGRW on Saccharomyces cerevisiae?
[reply] 0.887

[ask] Hi! What's the reported protein stability index for YSGRYRTLVRCW on Saccharomyces cerevisiae?
[reply] 0.366

[ask] Hi! What's the reported protein stability index for SPTQIPLWILAS on Saccharomyces cerevisiae?
[reply] 0.394

[ask] Hi! What's the reported protein stability index for LCSVWVGIVLLC on Saccharomyces cerevisiae?
[reply] 0.236

[ask] Hi! What's the reported protein stability index for RQALYFLMICGL on Saccharomyces cerevisiae?
[reply] 0.564

* * *

tested on: Saccharomyces cerevisiae; experiment: protein stability index of tFT-peptide fusion (C-terminal peptide) (PSI (0-1 scale)); higher = more stable (slower turnover); conditions: genetic background: wild type; temperature: 30 C
observed property: protein stability index
When you answer, write just the number.

[ask] Look up protein stability index for this sequence: LCRPNELPDGLP
[reply] 0.664

[ask] Look up protein stability index for this sequence: VIGLLSYFLVYL
[reply] 0.491

* * *

test system: Saccharomyces cerevisiae; assay: protein stability index of tFT-peptide fusion in deletion strain of DAS1 (PSI (0-1 scale)); higher = more stable (slower turnover)
Listing of entries alongside the reported protein stability index.
When you answer, write just the number.

Solved entries (count: 5):
CTSCGYKMRTNN ... 0.669
VRGAVGGWRLVGE ... 0.66
PSLAESFWRVVG ... 0.685
PSLAASFWYVVG ... 0.708
ARWCVGLWRGAS ... 0.7

[ask] Look up protein stability index for this sequence: PDKRNHLIKLFN
[reply] 0.551

[ask] Look up protein stability index for this sequence: CTSCGYKSRTNN
[reply] 0.703

[ask] Look up protein stability index for this sequence: VRGAVGHWRLVG
[reply] 0.678

[ask] Look up protein stability index for this sequence: YRWRVGLWRGAS
[reply] 0.66

[ask] Look up protein stability index for this sequence: FSCRWTFRYWVN
[reply] 0.51

[ask] Look up protein stability index for this sequence: PDKREHLIKLLN
[reply] 0.716

[ask] Look up protein stability index for this sequence: RVIQPLPVQFLN
[reply] 0.576

[ask] Look up protein stability index for this sequence: KKHKKGQKQGIN
[reply] 0.606

[ask] Look up protein stability index for this sequence: VRGAVGGWRLCG
[reply] 0.676

[ask] Look up protein stability index for this sequence: FSMRWTGRYWVN
[reply] 0.587

[ask] Look up protein stability index for this sequence: RLIQPLPVLFLN
[reply] 0.542

* * *

system: Saccharomyces cerevisiae; experiment: protein stability index of tFT-peptide fusion (C-terminal peptide) (PSI (0-1 scale)); higher = more stable (slower turnover); conditions: genetic background: cdc34-1; temperature: 37 C
observed property: protein stability index
When you answer, write just the number.

LFWFRGTIVTPR ... 0.693
PCYRPPLPALLS ... 0.613
ESSRNILLWRTI ... 0.69
LCSVWVGIVLLC ... 0.156
AIMFLVLGYVFF ... 0.262

Now take the following sequence into account.
[ask] Hi! What's the reported protein stability index for PWFSWLLYSFLF on Saccharomyces cerevisiae?
[reply] 0.546

* * *

tested on: Saccharomyces cerevisiae; test: protein stability index of tFT-peptide fusion (C-terminal peptide) (PSI (0-1 scale)); higher = more stable (slower turnover); conditions: genetic background: das1 deletion; temperature: 30 C
Please mark Fulfilled if the recorded protein stability index is equal to or greater than 0.4, and Not fulfilled if it falls below.

GQRIKWGPIYLT ... Not fulfilled
VYFRYWLLVVVF ... Not fulfilled
LCSCAVVICCSL ... Not fulfilled

[ask] Is protein stability index for TLLMVSMTVRPL at or above 0.4?
[reply] Not fulfilled

[ask] Is protein stability index for YGETRGGGRGRW at or above 0.4?
[reply] Fulfilled

[ask] Is protein stability index for GFFLCTCIRFWV at or above 0.4?
[reply] Not fulfilled

[ask] Is protein stability index for IFPSRSLLAASA at or above 0.4?
[reply] Not fulfilled

[ask] Is protein stability index for LFSFVCLVFFLW at or above 0.4?
[reply] Not fulfilled

[ask] Is protein stability index for VALSILCVFFFF at or above 0.4?
[reply] Not fulfilled

[ask] Is protein stability index for CFATTCLRCKWV at or above 0.4?
[reply] Fulfilled

[ask] Is protein stability index for LKKTLNGRRKMI at or above 0.4?
[reply] Fulfilled

[ask] Is protein stability index for GLGMVIIGLLIG at or above 0.4?
[reply] Not fulfilled

[ask] Is protein stability index for RVHFLIVFLCRF at or above 0.4?
[reply] Not fulfilled

[ask] Is protein stability index for SLSSSFQFSSPS at or above 0.4?
[reply] Fulfilled

[ask] Is protein stability index for AGMLMCLYLFFV at or above 0.4?
[reply] Fulfilled

* * *

test system: Saccharomyces cerevisiae; assay: protein stability index of tFT-peptide fusion (C-terminal peptide) (PSI (0-1 scale)); higher = more stable (slower turnover); details: genetic background: cdc53-1; temperature: 37 C
Please mark MET if the recorded protein stability index is equal to or greater than 0.5, and NOT MET if it falls below.

[ask] Is protein stability index for ALLMVCFGFSLV at or above 0.5?
[reply] MET

[ask] Is protein stability index for INKRDARIHLLM at or above 0.5?
[reply] MET

[ask] Is protein stability index for SRGRVLRLLLLV at or above 0.5?
[reply] NOT MET

[ask] Is protein stability index for VWRLCFPFALVR at or above 0.5?
[reply] NOT MET

[ask] Is protein stability index for SLSSSFQFSSPS at or above 0.5?
[reply] MET

[ask] Is protein stability index for LFIVTFIPVLFS at or above 0.5?
[reply] MET

[ask] Is protein stability index for VFYRPFFVLFFV at or above 0.5?
[reply] NOT MET

[ask] Is protein stability index for GWVQFVKAAVLF at or above 0.5?
[reply] MET

[ask] Is protein stability index for PWFSWLLYSFLF at or above 0.5?
[reply] MET

[ask] Is protein stability index for PHGASLCVPPSP at or above 0.5?
[reply] MET

[ask] Is protein stability index for FFCLVEVFVGVF at or above 0.5?
[reply] NOT MET

[ask] Is protein stability index for LRCCGALPLYAY at or above 0.5?
[reply] NOT MET

[ask] Is protein stability index for GYACSIFYLRCV at or above 0.5?
[reply] MET

[ask] Is protein stability index for LYYSVIFLFLSW at or above 0.5?
[reply] NOT MET

* * *

system: Saccharomyces cerevisiae; experiment: protein stability index of tFT-peptide fusion in deletion strain of DAS1 (PSI (0-1 scale)); higher = more stable (slower turnover)
observed property: protein stability index

LKIVRQKMNHQN ... 0.696

[ask] Hi! What's the reported protein stability index for PDKRNHLIKLWN on Saccharomyces cerevisiae?
[reply] 0.627

* * *

tested on: Saccharomyces cerevisiae; assay: protein stability index of tFT-peptide fusion (C-terminal peptide) (PSI (0-1 scale)); higher = more stable (slower turnover); conditions: genetic background: wild type; temperature: 30 C
Categories are defined by ranges of protein stability index, namely low: < 0.2; medium: ≥ 0.2 and < 0.3; high: ≥ 0.3

[ask] Kindly identify the class of IFLLLRRIIALS .
[reply] low

[ask] Kindly identify the class of GCVVLNTVAFIC .
[reply] low

[ask] Kindly identify the class of VVLCQVCVLWGW .
[reply] low

[ask] Kindly identify the class of GTETWVFVLLKF .
[reply] low

[ask] Kindly identify the class of ASVCLNVIYQLV .
[reply] low

[ask] Kindly identify the class of RKVWSLCWFVHL .
[reply] low

[ask] Kindly identify the class of VWVISLCIGGVG .
[reply] medium

[ask] Kindly identify the class of AGMLMCLYLFFV .
[reply] high

* * *

system: Saccharomyces cerevisiae; experiment: protein stability index of tFT-peptide fusion (C-terminal peptide) (PSI (0-1 scale)); higher = more stable (slower turnover); details: genetic background: wild type; temperature: 30 C
Listing of entries alongside the reported protein stability index.
When you answer, write just the number.

WGGVGLWGGWDG ... 0.723
KSKDKGEGKELK ... 0.694
PPLLPLLCPHSL ... 0.738
CCFPPLSPPASP ... 0.656

[ask] Look up protein stability index for this sequence: PHRSRPPPTPPV
[reply] 0.625

[ask] Look up protein stability index for this sequence: RGRPEVRPPGHY
[reply] 0.707

[ask] Look up protein stability index for this sequence: RGCVKQGLYCVL
[reply] 0.679

[ask] Look up protein stability index for this sequence: PSRPPALPPPAT
[reply] 0.721

[ask] Look up protein stability index for this sequence: LRPILLSWFRKS
[reply] 0.61
